# Method: Cytotoxicity against human WS1 cells
# Format: cell-based
Readout Type: pIC50
Kindly note that pIC50 refers to -log10 of the concentration in mol/L and answer with the value alone.

Exercise: Provide measured pIC50 value, entry: O=C(/C=C/c1ccc(O)cc1)OC[C@H]1O[C@@H](Oc2cc(O)c3c(=O)cc(-c4ccc(O)cc4)oc3c2)[C@H](O)[C@@H](O)[C@@H]1O
Solution: 4.38

* * *

# Method: Inhibition of Bacillus stearothermophilus alpha-glucosidase
# Set-up: species or system Geobacillus stearothermophilus
Readout Type: IC50 (µM)
The response must be a number in µM with no trailing unit.

Illustrative cases are given below, each with its answer.
[[record]]
molecule = "O=c1cc(-c2ccc(O)c(O)c2)oc2cc(O)cc(O)c12 [LUTEOLIN]"
readout_type = "IC50"
number = 86.1

[[record]]
molecule = "O=C(/C=C\\c1ccc(O)cc1)OC[C@H]1O[C@@H](Oc2cc(O)c3c(=O)cc(-c4ccc(O)cc4)oc3c2)[C@H](O)[C@@H](O)[C@@H]1O"
readout_type = "IC50"
number = 10.1

[[record]]
molecule = "O=c1cc(-c2ccc(O)cc2)oc2cc(O)cc(O)c12 [APIGENIN]"
readout_type = "IC50"
number = 34.6

[[record]]
molecule = "O=C(/C=C/c1ccc(O)cc1)O[C@@H]1[C@@H](O)[C@H](O)[C@@H](CO)O[C@H]1c1c(O)cc2oc(-c3ccc(O)cc3)cc(=O)c2c1O"
readout_type = "IC50"
number = 4.3

[[record]]
molecule = "O=C(/C=C\\c1ccccc1)OC[C@H]1O[C@@H](Oc2cc(O)c3c(=O)cc(-c4ccc(O)cc4)oc3c2)[C@H](O)[C@@H](O)[C@@H]1O"
readout_type = "IC50"
number = 11.3

[[record]]
molecule = "O=C(/C=C/c1ccc(O)cc1)O[C@@H]1[C@@H](O)[C@H](O)[C@@H](CO)O[C@H]1c1c(O)cc2oc(-c3ccc(O)c(O)c3)cc(=O)c2c1O"
readout_type = "IC50"
number = 35.7

[[record]]
molecule = "C[C@H]1O[C@H](O[C@H]2[C@H](O)[C@@H](O)[C@@H](O[C@H]3[C@H](O)[C@@H](O)C(O)O[C@@H]3CO)O[C@@H]2CO)[C@H](O)[C@@H](O)[C@@H]1N[C@H]1C=C(CO)[C@@H](O)[C@H](O)[C@H]1O (stereo partly specified) [ACARBOSE]"
readout_type = "IC50"
number = 0.033

[[record]]
molecule = "O=C(/C=C/c1ccc(O)cc1)OC[C@H]1O[C@@H](Oc2cc(O)c3c(=O)cc(-c4ccc(O)cc4)oc3c2)[C@H](O)[C@@H](O)[C@@H]1O"
readout_type = "IC50"
number = 14.6

[[record]]
molecule = "O=c1cc(-c2ccc(O)c(O)c2)oc2cc(O)c([C@@H]3O[C@H](CO)[C@@H](O)[C@H](O)[C@H]3O)c(O)c12 [ISOORIENTIN]"
readout_type = "IC50"
number = 1530

[[record]]
molecule = "COc1cc(/C=C/C(=O)OC[C@H]2O[C@@H](Oc3cc(O)c4c(=O)cc(-c5ccc(O)cc5)oc4c3)[C@H](O)[C@@H](O)[C@@H]2O)ccc1O"
readout_type = "IC50"
number = 8.8


Exercise: For the molecule O=c1cc(-c2ccc(O)cc2)oc2cc(O)c([C@@H]3O[C@H](CO)[C@@H](O)[C@H](O)[C@H]3O)c(O)c12 [ISOVITEXIN] , give its reported IC50.
Solution: 61.2
